These data points were gathered from ChEMBL document CHEMBL1156224.

- System: Staphylococcus epidermidis
- assay_info: Antibacterial activity against Staphylococcus epidermidis RP62A 6 hrs biofilm after 16 hrs by microtiter plate method
- Type: functional
A collection of compounds and their measured Activity
property_name: Activity

COC(=O)c1cccc(-c2ccc(/C=C3\S/C(=N\c4ccc(C)cc4)N(c4ccc(C)cc4)C3=O)o2)c1; >200 µM
Cc1ccc(/N=C2\S/C(=C\c3ccc(-c4cccc(C(=O)O)c4)o3)C(=O)N2c2ccc(C)cc2)cc1; 12.5 µM
COC(=O)COc1ccc(/C=C2\S/C(=N\c3ccccc3C)N(c3ccccc3C)C2=O)cc1OC; >200 µM
COC(=O)COc1ccc(/C=C2\S/C(=N\c3ccccc3)N(c3ccccc3)C2=O)cc1OC; >200 µM
COc1cc(/C=C2\S/C(=N\c3ccccc3C)N(c3ccccc3C)C2=O)ccc1O; >200 µM
CN(C)c1ccc(/C=C2\S/C(=N\c3ccccc3)N(c3ccccc3)C2=O)cc1; >200 µM
Cc1ccccc1/N=C1\S/C(=C\c2ccc(-c3cccc(C(=O)O)c3)o2)C(=O)N1c1ccccc1C; 25 µM
Cc1ccccc1/N=C1\S/C(=C\c2ccc(OCC(=O)O)cc2)C(=O)N1c1ccccc1C; >200 µM
COC(=O)c1cccc(-c2ccc(/C=C3\S/C(=N\c4ccc(OC)cc4)N(c4ccc(OC)cc4)C3=O)o2)c1; >200 µM
